# systemUnderTest: OXSR1 (human)
# testMethodNotes: KINOMEscan competition binding
# testContext: compound 10.0 µM
Listing of entries alongside the reported kinase still bound, per cent of control.
The reply should contain only the number, in %.

| smilesString | kinase still bound, per cent of control, % |
| --- | --- |
| C=CC(=O)Nc1cc(NC(=O)c2ccc(C)c(NC(=O)c3ccno3)c2)cc(C(F)(F)F)c1 | 100 |

Recorded kinase still bound, per cent of control (compound COc1cc(N2CCN(C)CC2)ccc1Nc1nc(N)c(C(=O)c2c(Cl)cccc2Cl)s1 ): 100

Recorded kinase still bound, per cent of control (compound O=C1Nc2ccc(I)cc2/C1=C/c1cc(Br)c(O)c(Br)c1 ): 100

Recorded kinase still bound, per cent of control (compound Cc1ccc(NC(=O)c2cccc(C(C)(C)C#N)c2)cc1Nc1ccc2ncn(C)c(=O)c2c1 ): 96

Recorded kinase still bound, per cent of control (compound O=C(O)c1ccc(Nc2ncc3c(n2)-c2ccc(Cl)cc2C(c2c(F)cccc2F)=NC3)cc1 ): 94

Recorded kinase still bound, per cent of control (compound CN(C)C/C=C/C(=O)Nc1cccc(Nc2ncc3c(n2)N(C)c2ccccc2C(=O)N3C)c1 ): 25

Recorded kinase still bound, per cent of control (compound C[C@@H](Oc1cc(-n2cnc3ccc(CN4CCN(C)CC4)cc32)sc1C(N)=O)c1ccccc1C(F)(F)F ): 98

====

# systemUnderTest: CDC42BPG (human)
# testMethodNotes: KINOMEscan competition binding
# testContext: compound 10.0 µM
reportedEndpoint: kinase still bound, per cent of control (%)
The reply should contain only the number, in %.

Some entries whose results are on file:
| molecule | kinase still bound, per cent of control [%] |
| --- | --- |
| CN(C)C/C=C/C(=O)Nc1cccc(Nc2ncc3c(n2)N(C)c2ccccc2C(=O)N3C)c1 | 100 |
| O=C1Nc2ccc(I)cc2/C1=C/c1cc(Br)c(O)c(Br)c1 | 91 |
| Cc1ccc(C(=O)Nc2cccc(C(F)(F)F)c2)cc1Nc1cncc(C(N)=O)c1 | 100 |
| Cc1cc([C@@H](C)Nc2ccccc2C(=O)O)c2nc(N3CCOCC3)cc(=O)n2c1 | 100 |
| Cc1ccc2nc(NCCN)c3ncc(C)n3c2c1 | 94 |

Recorded kinase still bound, per cent of control (molecule C=CC(=O)Nc1cc(NC(=O)c2ccc(C)c(NC(=O)c3ccno3)c2)cc(C(F)(F)F)c1 ): 100

====

# systemUnderTest: CSNK1D (human)
# testMethodNotes: KINOMEscan competition binding
# testContext: compound 10.0 µM
reportedEndpoint: kinase still bound, per cent of control (%)
The reply should contain only the number, in %.

| compound | observedValue |
| --- | --- |
| Cn1c(=O)n(-c2ccc(C(C)(C)C#N)cc2)c2c3cc(-c4cnc5ccccc5c4)ccc3ncc21 | 100 |
| COc1cc(N2CCN(C)CC2)ccc1Nc1nc(N)c(C(=O)c2c(Cl)cccc2Cl)s1 | 100 |
| O=C(NOC[C@H](O)CO)c1ccc(F)c(F)c1Nc1ccc(I)cc1F | 100 |
| O=C(NC1CC1)c1cccc(-c2ccc3c(NC(=O)C4CC4)n[nH]c3c2)c1 | 78 |

Recorded kinase still bound, per cent of control (compound CCC(=O)N1CCN(c2ccc(-n3c(=O)ccc4cnc5ccc(-c6cnc7ccccc7c6)cc5c43)cc2C(F)(F)F)CC1 ): 4.3

Recorded kinase still bound, per cent of control (compound COc1cc(C(=O)NC2CCN(C)CC2)ccc1Nc1ncc2c(n1)N(C1CCCC1)C(C)CC(=O)N2C (centres undefined) ): 100

Recorded kinase still bound, per cent of control (compound Nc1ccc(-c2ccc3ncc4ccc(=O)n(-c5cccc(C(F)(F)F)c5)c4c3c2)cn1 ): 63

Recorded kinase still bound, per cent of control (compound CN(C)C/C=C/C(=O)Nc1cccc(Nc2ncc3c(n2)N(C)c2ccccc2C(=O)N3C)c1 ): 52

Recorded kinase still bound, per cent of control (compound Cc1cc([C@@H](C)Nc2ccccc2C(=O)O)c2nc(N3CCOCC3)cc(=O)n2c1 ): 86

====

# systemUnderTest: RIPK2 (human)
# testMethodNotes: KINOMEscan competition binding
# testContext: compound 10.0 µM
reportedEndpoint: kinase still bound, per cent of control (%)
The reply should contain only the number, in %.

Some entries whose results are on file:
| compound | kinase still bound, per cent of control / % |
| --- | --- |
| COc1cc(C(=O)NC2CCN(C)CC2)ccc1Nc1ncc2c(n1)N(C1CCCC1)C(C)CC(=O)N2C (centres undefined) | 100 |
| Cc1cc([C@@H](C)Nc2ccccc2C(=O)O)c2nc(N3CCOCC3)cc(=O)n2c1 | 94 |
| CN(C)C/C=C/C(=O)Nc1cccc(Nc2ncc3c(n2)N(C)c2ccccc2C(=O)N3C)c1 | 18 |
| COc1cc(N2CCN(C)CC2)ccc1Nc1nc(N)c(C(=O)c2c(Cl)cccc2Cl)s1 | 70 |
| O=C(NOC[C@H](O)CO)c1ccc(F)c(F)c1Nc1ccc(I)cc1F | 66 |

Query compound follows.
Readout kinase still bound, per cent of control for CCOc1cc2ncc(C#N)c(Nc3ccc(OCc4ccccn4)c(Cl)c3)c2cc1NC(=O)/C=C/CN(C)C , test system RIPK2 (human), was 98

====

# systemUnderTest: ITK (human)
# testMethodNotes: KINOMEscan competition binding
# testContext: compound 10.0 µM
Listing of entries alongside the reported kinase still bound, per cent of control.
The reply should contain only the number, in %.

| smilesString | reportedEndpoint | observedValue |
| --- | --- | --- |
| Cc1ccc(C(=O)Nc2cccc(C(F)(F)F)c2)cc1Nc1cncc(C(N)=O)c1 | kinase still bound, per cent of control | 100 |

Recorded kinase still bound, per cent of control (molecule C=CC(=O)Nc1cccc(Nc2nc(N[C@H]3CC[C@H](N(C)C)CC3)nc3c2ncn3C(C)C)c1 ): 65

Recorded kinase still bound, per cent of control (molecule CN(C)C/C=C/C(=O)Nc1cccc(Nc2ncc3c(n2)N(C)c2ccccc2C(=O)N3C)c1 ): 58

Recorded kinase still bound, per cent of control (molecule CCC(=O)N1CCN(c2ccc(-n3c(=O)ccc4cnc5ccc(-c6cnc7ccccc7c6)cc5c43)cc2C(F)(F)F)CC1 ): 100

Recorded kinase still bound, per cent of control (molecule O=C(NOC[C@H](O)CO)c1ccc(F)c(F)c1Nc1ccc(I)cc1F ): 97

====

Listing of entries alongside the reported kinase still bound, per cent of control.
# systemUnderTest: CLK2 (human)
# testMethodNotes: KINOMEscan competition binding
# testContext: compound 10.0 µM
The reply should contain only the number, in %.

Some entries whose results are on file:
| compound | observedValue |
| --- | --- |
| O=C(NC1CC1)c1cccc(-c2ccc3c(NC(=O)C4CC4)n[nH]c3c2)c1 | 37 |
| O=C(NOC[C@H](O)CO)c1ccc(F)c(F)c1Nc1ccc(I)cc1F | 96 |
| CCCS(=O)(=O)Nc1ccc(F)c(C(=O)c2c[nH]c3ncc(-c4ccc(Cl)cc4)cc23)c1F | 46 |

Recorded kinase still bound, per cent of control (compound COc1cc(C(=O)NC2CCN(C)CC2)ccc1Nc1ncc2c(n1)N(C1CCCC1)CCC(=O)N2C(C)C ): 100

Recorded kinase still bound, per cent of control (compound O=C1Nc2ccc(I)cc2/C1=C/c1cc(Br)c(O)c(Br)c1 ): 15

Recorded kinase still bound, per cent of control (compound Cc1ccc2nc(NCCN)c3ncc(C)n3c2c1 ): 54

Recorded kinase still bound, per cent of control (compound COc1cc(C(=O)NC2CCN(C)CC2)ccc1Nc1ncc2c(n1)N(C1CCCC1)C(C)CC(=O)N2C (centres undefined) ): 6.2

Recorded kinase still bound, per cent of control (compound Cc1cc([C@@H](C)Nc2ccccc2C(=O)O)c2nc(N3CCOCC3)cc(=O)n2c1 ): 70

Recorded kinase still bound, per cent of control (compound CCN1CCN(Cc2ccc(Nc3ncc4c(n3)N(C)c3ccccc3C(=O)N4C)cc2C(F)(F)F)CC1 ): 39

====

Listing of entries alongside the reported kinase still bound, per cent of control.
# systemUnderTest: PRKCH (human) (UniProt P24723)
# Sequence (P24723 whole entry, looked up): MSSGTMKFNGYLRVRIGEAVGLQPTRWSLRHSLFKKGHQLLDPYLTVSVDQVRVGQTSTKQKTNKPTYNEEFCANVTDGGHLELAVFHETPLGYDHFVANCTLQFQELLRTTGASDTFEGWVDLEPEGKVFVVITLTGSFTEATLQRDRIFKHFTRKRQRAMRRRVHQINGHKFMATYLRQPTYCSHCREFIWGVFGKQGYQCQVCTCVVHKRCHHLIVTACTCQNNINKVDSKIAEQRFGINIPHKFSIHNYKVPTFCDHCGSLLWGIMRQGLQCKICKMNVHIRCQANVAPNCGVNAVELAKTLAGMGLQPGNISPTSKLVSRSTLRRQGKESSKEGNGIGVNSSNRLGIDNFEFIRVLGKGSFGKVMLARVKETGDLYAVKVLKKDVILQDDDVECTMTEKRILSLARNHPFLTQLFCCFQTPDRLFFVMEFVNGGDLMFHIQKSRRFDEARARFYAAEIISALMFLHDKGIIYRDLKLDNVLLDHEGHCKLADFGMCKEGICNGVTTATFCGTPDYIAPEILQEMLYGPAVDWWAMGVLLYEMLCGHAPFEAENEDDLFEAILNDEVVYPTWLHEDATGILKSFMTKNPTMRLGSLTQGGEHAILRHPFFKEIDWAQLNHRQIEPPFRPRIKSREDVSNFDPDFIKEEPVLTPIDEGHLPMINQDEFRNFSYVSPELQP
# testMethodNotes: KINOMEscan competition binding
# testContext: compound 10.0 µM
The reply should contain only the number, in %.

| smilesString | kinase still bound, per cent of control (%) |
| --- | --- |
| N#Cc1c(NC(=O)c2cccc3ccccc23)sc2c1CCCC2 | 87 |
| C=CC(=O)Nc1cccc(Nc2nc(N[C@H]3CC[C@H](N(C)C)CC3)nc3c2ncn3C(C)C)c1 | 91 |
| CCC(=O)N1CCN(c2ccc(-n3c(=O)ccc4cnc5ccc(-c6cnc7ccccc7c6)cc5c43)cc2C(F)(F)F)CC1 | 92 |
| C[C@@H](Oc1cc(-n2cnc3ccc(CN4CCN(C)CC4)cc32)sc1C(N)=O)c1ccccc1C(F)(F)F | 90 |

Recorded kinase still bound, per cent of control (compound CC[C@@H]1C(=O)N(C)c2cnc(Nc3ccc(C(=O)NC4CCN(C)CC4)cc3OC)nc2N1C1CCCC1 ): 100

Recorded kinase still bound, per cent of control (compound COc1cc(C(=O)NC2CCN(C)CC2)ccc1Nc1ncc2c(n1)N(C1CCCC1)CCC(=O)N2C(C)C ): 100

Recorded kinase still bound, per cent of control (compound CN(C)C/C=C/C(=O)Nc1cccc(Nc2ncc3c(n2)N(C)c2ccccc2C(=O)N3C)c1 ): 100

Recorded kinase still bound, per cent of control (compound Cc1cc([C@@H](C)Nc2ccccc2C(=O)O)c2nc(N3CCOCC3)cc(=O)n2c1 ): 82

Recorded kinase still bound, per cent of control (compound COc1cc(N2CCN(C)CC2)ccc1Nc1nc(N)c(C(=O)c2c(Cl)cccc2Cl)s1 ): 93

Values from the kinase profiling compilation of Christmann-Franck et al. (2016)
